tested on: Nakaseomyces glabratus; assay: Fungal activity against Candida glabrata BG2 assessed as concentration required to less than 0.1% survival of organism after 2 hrs; assay type: functional; details: BG2, 2 h
What MFC was measured for each of the following?
Give the quantity in µM, number only.

The measured MFC associated with `N=C(N)NC(=N)Nc1ccc(SCc2ccc(Cl)cc2)cc1` reads 50

Form field MFC, entry `Cl.N=C(N)NC(=N)Nc1cccc(SCc2cc(Br)cc(Br)c2)c1` : 10

Looking up `Clc1ccc(CSc2cccc(N=C(NC3CCCCC3)NC3CCCCC3)c2)cc1` , I see its MFC listed as 5

Input `N=C(N)Nc1ccc(SCc2cc(Br)cc(Br)c2)cc1` . Output MFC: 50

get_value(item= `N=C(N)Nc1cccc(SCc2cc(Br)cc(Br)c2)c1` , readout=MFC) returns 50

For reference, reported MFC for `Brc1cc(Br)cc(CSc2cccc(N=C(NC3CCCCC3)NC3CCCCC3)c2)c1` stands at 5

MFC for `N=C(N)Nc1ccc(SCc2ccc(Cl)cc2)cc1` is 50

Sure, the documented MFC for `Brc1cc(Br)cc(CSc2ccc(N=C(NC3CCCCC3)NC3CCCCC3)cc2)c1` is 5
